Exercise: for every item that follows, state its recorded Kd.
Biological target: C-CBL (46-435) (Homo sapiens)
Construct: N-terminal biotinylated WT CBL-B (36-427) and C-CBL (46-435) were captured on a streptavidin (SA) coated sensor chip
Sequence (P22681 46-435): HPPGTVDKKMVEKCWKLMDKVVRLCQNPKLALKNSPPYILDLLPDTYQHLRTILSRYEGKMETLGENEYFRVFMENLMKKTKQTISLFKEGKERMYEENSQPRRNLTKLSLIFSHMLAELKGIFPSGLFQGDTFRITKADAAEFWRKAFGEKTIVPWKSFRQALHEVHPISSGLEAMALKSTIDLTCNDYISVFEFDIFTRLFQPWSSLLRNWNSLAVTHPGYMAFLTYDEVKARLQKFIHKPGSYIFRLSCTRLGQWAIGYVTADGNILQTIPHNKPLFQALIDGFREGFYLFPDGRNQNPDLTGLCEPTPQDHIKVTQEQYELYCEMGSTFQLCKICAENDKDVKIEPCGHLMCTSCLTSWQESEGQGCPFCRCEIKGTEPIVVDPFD
Assay: Surface Plasmon Resonance (SPR) assay, binding affinity and kinetics, C-CBL
Settings: SPR at 10° C., biotinylated C-CBL (46-435) on streptavidin chip; geometric mean; read-out: C-CBL SPR Kd (nM) GMean
State just the number; it will be interpreted in nM.

Answer with reported Kd of C[C@@H]1CCCN(Cc2nc(C(F)(F)F)cc3c(-c4cccc(C5(Cc6nncn6C)COC5)c4)n[nH]c23)C1
195

Answer with reported Kd of C[C@H](c1nc(C(F)(F)F)cc2c(-c3cccc(C4(Cc5nncn5C)COC4)c3)n[nH]c12)N1CCNC(=O)C1 (single isomer, unassigned)
79.1

Answer with reported Kd of CN[C@H](C)c1nc(C(F)(F)F)cc2c(-c3cccc(C4(Cc5nncn5C)COC4)c3)n[nH]c12 (single isomer, unassigned)
110
